experiment: Thermal stability at 110° C. in an open flask (HPLC purity); format: physicochemical; details: t = 0, before heating (baseline of the thermal stability test)
Structures can show the parent of a compound that is named as a salt.
Listed next: entries and their corresponding HPLC purity (%).

Compound	Unit	HPLC purity (%)
CCC[C@H](N[C@@H](C)C(=O)N1[C@H](C(=O)O)C[C@@H]2CCCC[C@@H]21)C(=O)OCC.N=C(N)NCCC[C@H](N)C(=O)O [β form according to EP 2 016 051]	%	99.6
CCC[C@H](N[C@@H](C)C(=O)N1[C@H](C(=O)O)C[C@@H]2CCCC[C@@H]21)C(=O)OCC.N=C(N)NCCC[C@H](N)C(=O)O [α form according to EP 1 989 182]	%	99.8
CCC[C@H](N[C@@H](C)C(=O)N1[C@H](C(=O)O)C[C@@H]2CCCC[C@@H]21)C(=O)OCC [perindopril L-arginine salt]	%	99.7
CCC[C@H](N[C@@H](C)C(=O)N1[C@H](C(=O)O)C[C@@H]2CCCC[C@@H]21)C(=O)OCC.N=C(N)NCCC[C@H](N)C(=O)O [Form obtained according to the process of SI 23001]	%	99.1
CCC[C@H](N[C@@H](C)C(=O)N1[C@H](C(=O)O)C[C@@H]2CCCC[C@@H]21)C(=O)OCC.N=C(N)NCCC[C@H](N)C(=O)O [γ form according to WO 2009/157018]	%	99.7
